Assay: A CellTox Green Cytotoxicity Assay to monitor cytotoxicity in HepG2 cells - 32 hour (AID 1224883); further: nearly all actives have a fitted effect of over 50% in size
Conditions: CellTox Green fluorescence; series mostly up to 76.8 µM
Excerpt: National Center for Advancing Translational Sciences [NCATS] NIH Chemical Genomics Center [NCGC] U.S. Environmental Protection Agency [EPA] National Institutes of Environmental Health Sciences [NIEHS] National Toxicology Program [NTP] Cell-based models are critical for drug discovery. […] Viable cells produce no appreciable increases in fluorescence. Therefore, the fluorescence signal produced by the binding interaction with dead cell DNA is proportional to cytotoxicity. […]
Inconclusive results are not listed. The source made the active and inactive calls. The call rests on the fitted dose curve; in most records, active means well fitted activation curve with a large enough effect in the repeat runs; inconclusive means weak or mixed curves; inactive means flat fitted curve, though single readings scatter.
Field 'call' accepts Y = active, N = inactive

> print(dat)
                                   compound  category
1  Cc1c(F)cc2c(=O)c(C(=O)O)cn3c2c1CCC3C (stereo not drawn)         N
2                             CCCCCCCCCCCCI         N
3                        CNc1ncnc2nc[nH]c12         N
4                           CSc1ccc(C=O)cc1         N

Write down the call the test reported for this compound. Item: O=C(CCOCCOCCOCCOCCC(=O)Nc1c(I)cc(I)c(C(=O)O)c1I)Nc1c(I)cc(I)c(C(=O)O)c1I
N

Per the records of this test, what outcome belongs to CCCCN(CCO)CCO ?
N

Could you kindly confirm the outcome this assay logged for CC1(C)OC(=O)Nc2ccc(Br)cc21 ?
N

Give the logged outcome of this assay for the following compound: CCCCCCCCN(C)CCCCCCCC
Y

====

biological target: Nuclear receptor subfamily 1 group I member 2 (Homo sapiens); assay: Human pregnane X receptor (PXR) small molecule agonists, qHTS assay (AID 1346982); conditions: PXR-Luc HepG2, CYP3A4 luciferase reporter, 24 h; series mostly up to 92.4 µM; further: nearly all actives have a fitted effect of over 35% in size; on activation: on the % scale 0 is the no-effect control and ±100 the full control effect
Results filed as inconclusive are left out. The source made the active and inactive calls. Calls come from the whole dose curve; as a rule, active = well fitted activation curve with a large enough effect in the repeat runs; inconclusive = weak or mixed curves; inactive = no such curve, though single readings can be large or run the other way.
Entry note: the call must match one of active, inactive

Consider the following illustrative entries.
> print(dat)
                                   compound  category
1                    O=C1CC2(CCCC2)CC(=O)N1  inactive
2  NC(=O)c1ncn([C@@H]2O[C@H](CO)[C@@H](O)[C@H]2O)c1N  inactive
3                     c1ccc(CCCc2ccccn2)cc1    active
4                                  C1COCCO1  inactive
5  CCCCCCC(CCCCCCCCCCC(=O)OCC(COC(C)=O)OC(C)=O)OC(C)=O (centres undefined)  inactive
6  C[C@H](O)C(=O)Nc1c(I)c(C(=O)NC(CO)CO)c(I)c(C(=O)NC(CO)CO)c1I  inactive

Field: outcome | Entry: C=CC(=O)N1CCOCC1
inactive

What call does the record list for C#CC(O)CCCCC (centres undefined) ?
inactive

# lookup: test call for CC(C)CCCC(C)CCCC(C)CCCCC(C)CCCC(C)CCCC(C)C (centres undefined)
inactive

Please share the test call associated with O=c1[nH]c2ccccc2c(=O)n1CCCl .
inactive

Called result for CCCc1ccccc1O
inactive

Called result for C=CC(=O)OCCCCCC
inactive

I'd appreciate the recorded outcome for OCCCCCCO from this test.
inactive

What classification did CC(=O)OC(C)(C)C end up with in this test?
inactive

====

experiment: qHTS assay to identify small molecule antagonists of the sonic hedgehog signaling (Shh) pathway (AID 1259369); conditions: NIH/3T3 Gli1-Luc reporter, Shh antagonist, luminescence 24 h; series mostly up to 92.4 µM; further: on the % scale 0 is the no-effect control and ±100 the full control effect; nearly all actives have a fitted effect of over 45% in size
Inconclusive results are not listed. Active and inactive are the calls of the source. Calls follow the shape of the full dose curve.
// activity change, negative = inhibition lookup, one value per entry

Completed entries (count: 4):
> print(dat)
                    structure.smiles.string                   readout.value
1                            C1CCCCCCCCCCC1     13.4% [at 19 µM] (inactive)
2  FC(F)(F)C(F)(F)C(F)(F)C(F)(F)C(F)(F)C(F)(F)C(F)(F)C(F)(F)C(F)(F)C(F)(F)F  -15.5% [at 8.39 µM] (inactive)
3            C=C(C)C(=O)OCCCCCCCCCCCCCCCCCC     6.62% [at 19 µM] (inactive)
4       Cn1ccc2cc3c(cc21)CCN3C(=O)Nc1cccnc1     1.03% [at 19 µM] (inactive)

Attention now shifts to the item below.
Record summary for NC(=S)Nc1cccc2ccccc12 : reported activity change, negative = inhibition = 0.0462% [at 8.39 µM] (inactive)

====

Test: qHTS assay to test for compound auto fluorescence at 535 nm (green) in HepG2 cells (AID 720675); further: on the % scale 0 is the no-effect control and ±100 the full control effect
Settings: green autofluorescence 485/535 nm, 1 h; series mostly up to 91.3 µM
Excerpt: National Center for Advancing Translational Sciences [NCATS] NIH Chemical Genomics Center [NCGC] U.S. Environmental Protection Agency [EPA] National Institutes of Environmental Health Sciences [NIEHS] National Toxicology Program [NTP] U.S. Food and Drug Administration [FDA] Compound auto fluorescence often interferes with screening of the compound library against various biological targets and signaling pathways. Some of these compounds may have fluorophoric properties. […]
The source made the active and inactive calls. The call rests on the fitted dose curve; in most records, active means well fitted curve in the direction sought with a large enough effect in the repeat runs; inconclusive means weak or mixed curves; inactive means flat fitted curve, though single readings scatter.
value.kind: fluorescence, % of fluorescein control

> print(dat)
                                   compound                              value.kind                     readout.value
1  NS(=O)(=O)c1cc(C2(O)NC(=O)c3ccccc32)ccc1Cl (centres undefined)  fluorescence, % of fluorescein control  7.3e-05% [at 18.6 µM] (inactive)
2  CCCC(=O)O[C@]1(C(=O)CCl)[C@@H](C)C[C@H]2[C@@H]3CCC4=CC(=O)C=C[C@]4(C)[C@@]3(F)C(=O)C[C@@]21C  fluorescence, % of fluorescein control                          inactive
3  C=CCOCC(O)CS(=O)(=O)O (centres undefined)  fluorescence, % of fluorescein control                          inactive
4             CC(=O)N[C@@H](CCC(N)=O)C(=O)O  fluorescence, % of fluorescein control                          inactive

====

Assay: qHTS assay to identify small molecule antagonists of the sonic hedgehog signaling (Shh) pathway (AID 1259369); further: on the % scale 0 is the no-effect control and ±100 the full control effect; nearly all actives have a fitted effect of over 45% in size
Conditions: NIH/3T3 Gli1-Luc reporter, Shh antagonist, luminescence 24 h; series mostly up to 92.4 µM
Description: U.S. Tox21 Program National Center for Advancing Translational Sciences [NCATS] NIH Chemical Genomics Center [NCGC] U.S. Environmental Protection Agency [EPA] National Institutes of Environmental Health Sciences [NIEHS] National Toxicology Program [NTP] U.S. Food and Drug Administration [FDA] Tox21 Assay Overview: The sonic hedgehog (Shh) pathway is essential for normal embryonic development. Dysregulation of the Shh pathway can cause severe developmental defects in organs. […]
Inconclusive results are not listed. Activity calls are given as the source filed them. Calls follow the shape of the full dose curve.
One label from this list, please: active, inactive

compound	category
OCC(CO)(CO)COCC(CO)(CO)CO	inactive

Would you mind telling me which call this test gave C1COCCO1 ?
inactive

Look up the recorded call for O=C(O)C1CCC1 in this test.
inactive

Outcome logged for OCCN1C[C@H](O)[C@@H](O)[C@H](O)[C@H]1CO in this assay:
inactive

Given Nc1cc(C(Cl)=C(Cl)Cl)c(S(N)(=O)=O)cc1S(N)(=O)=O , state the outcome it received in this test.
inactive

Returns: the outcome recorded for CCCc1ccccc1O in this assay.
inactive

Look up the recorded call for COc1ccc2cc(C=O)ccc2c1 in this test.
inactive

Returns: the outcome recorded for CC(C)(O)Cc1ccccc1 in this assay.
inactive

So what was the verdict on COc1ccc(NC(C)=O)cc1 in this test?
inactive

# fetch the recorded call for NC(=O)CCCCC1CCSS1 (configuration not stated) here
inactive

State the result this test recorded for N#CCc1ccccc1[N+](=O)[O-] .
inactive

Which outcome was assigned to O=S(=O)(O)c1ccccc1O in this test?
inactive

// return assay outcome for CO
inactive

Recorded test outcome, item Fc1ccccc1-c1ccccc1
inactive

Could you kindly confirm the outcome this assay logged for CCCCC=O ?
inactive

Field: outcome | Entry: Cn1cnc2c(=O)[nH]c(N)nc21
inactive

====

assay: qHTS assay for small molecule agonists of the p53 signaling pathway - cell viability (AID 651633); details: p53RE-bla HCT-116 viability, ATP luminescence, 16 h; series mostly up to 83.3 µM;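 further: p53RE-bla HCT reporter cells with a stable beta-lactamase p53 reporter; on the % scale 0 is the no-effect control and ±100 the full control effect; nearly all actives have a fitted effect of over 30% in size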
Records with an inconclusive call do not appear. Calls of active or inactive are those of the source. Calls come from the whole dose curve.
value.kind: outcome

> print(dat)
                                   compound  readout.value
1  NS(=O)(=O)c1cc2c(cc1C(F)(F)F)NC(Cc1ccccc1)NS2(=O)=O (configuration not stated)       inactive
2  Cc1cc(C)cc(OCC2CNC(=O)O2)c1 (configuration not stated)       inactive
3  CC1=CC(C)C(C=O)C(C)C1 (configuration not stated)       inactive
4                           CCCCCCCCCCCCCCC       inactive
5  CCCCOCC(C)OCC(C)O (configuration not stated)       inactive

compound Cc1onc(-c2ccccc2)c1-c1ccc(S(N)(=O)=O)cc1 , outcome observed: inactive

For this compound ( C=C[Si](OC)(OC)OC ), measured outcome is inactive
